System: gene editing with dCas9
assay: Screen of 322 new SSAP proteins, gene editing activity with dCas9 (Table 5)
Format: cell-based
setup.conditions: normalized
outcome.measure: dCas9 with SSAP activity (normalized)

[
  {
    "molecule": "SSAP_297: SEQ ID NO: 466; Dysgonomonas capnocytophagoides (protein, Dysgonomonas capnocytophagoides) STQQVQQQTKPLSLANFLNAPSTANFLKETLAEKKSEFVSNLIALCDADPKLAQCDPAQLMKCAMNATSLNLPLNKNLGYAYVIAYKGVPSFQIGYKGLIQLAIRTGQYKFINATEIREGEIRHNKITGEVIFNGEKPDAPIVGYMSYLELVNGFTASLYMTEEQIEQHALRFSQTYKNDKQYRSSTSKWSDPLARPTMCKKTVLKLLLGTYGLMTTEFAKALDSDSDDEVSTSGHRFEEAEIVQQGEPNEEQSDEPKRMEI",
    "numeric.readout": "−1.057"
  },
  {
    "molecule": "SSAP_167: SEQ ID NO: 336; Ruminococcus sp. (protein, listed as Ruminococcus sp.) GTSIQKNVENNALQKEKMPTMQAYIKKMEGEIKKALPSVMTPERFTRITLSALSTNPKLAATTPGSFLGAMMTAAQLGLEPNTPLGQAYLIPYSNKGKLECQFQIGYKGLIDLAYRSGSISVIQAHTVYENDDFEYELGLDPKLKHIPSKSADKGNPAWFYAVFKTKDGGYGFEVMSIEDIRSHAAKYSQSYNSAYSPWKTNFEEMAKKTVLKKALKYAPLKSDFVRQISTDETIKTKLSDDMFSVPAETIEVEGIEVDTETGEITEVDHA",
    "numeric.readout": "−0.834"
  }
]
